Origin of values: patent US20050208041A1

Target: T1, purified recombinant IFNAR-1 extracellular fragment (human, UniProt P17181 28-436)
T1 construct: extracellular domain; also called soluble IFNAR-1; soluble IFNAR
T1 sequence (looked up): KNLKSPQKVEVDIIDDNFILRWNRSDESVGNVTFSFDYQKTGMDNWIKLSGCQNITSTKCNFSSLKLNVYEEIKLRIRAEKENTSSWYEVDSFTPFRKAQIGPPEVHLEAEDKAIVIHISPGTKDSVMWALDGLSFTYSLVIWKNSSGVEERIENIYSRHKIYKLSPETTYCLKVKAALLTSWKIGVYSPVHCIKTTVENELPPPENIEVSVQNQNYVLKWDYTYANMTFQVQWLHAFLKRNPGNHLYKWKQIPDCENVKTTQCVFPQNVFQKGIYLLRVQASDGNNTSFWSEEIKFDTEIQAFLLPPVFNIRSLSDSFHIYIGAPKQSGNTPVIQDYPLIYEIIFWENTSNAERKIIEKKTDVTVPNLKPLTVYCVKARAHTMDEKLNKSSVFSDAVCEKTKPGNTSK
Test: Biacore, antibody on immobilized soluble IFNAR-1, maximal response, mean of four
Recorded measurements of % response relative to H3K1, one per entry
Numbers only; they are read as %.

Some solved cases for reference:
1. DI M3 heavy chain with DI K1 light chain (antibody, human IgG4, V domains shown, also called DI M3 DI K1) VH: EVQLLESGGGLVQPGGSLRLSCAASGFTMSTSGMGIGWIRQTPGKGLEWVAHIWWDDDKYYNPSLKSRFTISKDTSKNTLYLQMNSLRAEDTAVYYCARNYYPYDAWFDYWGQGTLVTVS VL: DIQMTQSPSSLSASVGDRATITCSASSSINSNHLHWYLQKPGKAPKALIYRTSILASGIPSRFSGSGSGTDFTLTISSLQPEDTATYYCQQGSNIPFTFGQGTKVEIKR	8
2. M3-B heavy chain with DI K1-C light chain (antibody, V domains shown, also called M3-B DI K1-C) VH: EVQLLESGGGLVQPGGSLRLSCAFSGFTLSTSGMGIGWVRQAPGKGLEWVAHIWWDDDKYYNPSLKARFTISRDTSKNTVYLQMNSLRAEDTAVYYCARNYYPYDAWFDYWGQGTLVTVS VL: DIQMTQSPSSLSASVGDRVTITCSASTSINSNHLHWYLQKPGKAPKALIYRTSILASGIPSRFSGSGSGTDFTLTISSLQPEDTATYYCQQGSNIPFTFGQGTKVEIKR	14

Proceeding to the next binder to report its % response relative to H3K1.
Lab note: M3-B heavy chain with K1 light chain (antibody, human IgG4, V domains shown, also called M3-B K1) VH: EVQLLESGGGLVQPGGSLRLSCAFSGFTLSTSGMGIGWVRQAPGKGLEWVAHIWWDDDKYYNPSLKARFTISRDTSKNTVYLQMNSLRAEDTAVYYCARNYYPYDAWFDYWGQGTLVTVS VL: DIQMTQSPSSLSASVGDRVTITCSASSSINSNHLHWYQQKPGKAPKLLIYRTSILASGVPSRFSGSGSGTSFTLTISSLQPEDFATYYCQQGSNIPFTFGQGTKVEIKR gave % response relative to H3K1 of 117
